Below, each entry is listed with its recorded GI50.
Tested on: T47D
Assay: NCI tumour cell line growth inhibition, 48 h
Active and inactive are the calls of the source. No stated cut-off is given here; in the data, active = GI50 up to about 1.1 µM and inactive = higher.

Guide cases for GI50, answers given:
Request the reported GI50 associated with CC(=O)Nc1ccc(C(O)/C(=N/N)c2nc3ccc(Cl)cc3nc2O)cc1 (stereo not given) > 100 µM (inactive)

Request the reported GI50 associated with c1ccc2c3c(ccc2c1)CSCc1ccc2ccccc2c1-3 > 100 µM (inactive)

Further cases:
Request the reported GI50 associated with CC(=O)Oc1cccc2c(/C=N/NC(N)=S)ncc(C)c12 1.47 µM (inactive)

Request the reported GI50 associated with O=C(/C=C/c1c(O)nc2ccccc2c1O)CC(=O)C(=O)Nc1cccc(O)c1 > 100 µM (inactive)

Request the reported GI50 associated with O=C(CCC=C(S(=O)(=O)c1ccccc1)S(=O)(=O)c1ccccc1)c1ccccc1 5.43 µM (inactive)

---

Test system: NCI-H460
Test: NCI tumour cell line growth inhibition, 48 h
Active and inactive are the calls of the source. Cut-off read from the data, not from the text of the source: active = GI50 up to about 1.1 µM and inactive = higher.
Reply using exactly one outcome from yes (1) = active, no (0) = inactive

Would you mind telling me which call this test gave Cc1cccc(C)c1NC(=O)CCCC(=O)C1/C(=N/NC(=O)CC#N)CCC/C1=N\NC(=O)CC#N (stereo unspecified) ? no (0)

Further cases:
Would you mind telling me which call this test gave COc1ccc(C(CC(=O)c2ccc3c(c2)OCO3)c2c(O)oc3ccccc3c2=O)cc1OC (stereo unspecified) ? no (0)

Would you mind telling me which call this test gave NNC(=S)N/N=C(/C(=O)Nc1cc(Cl)ccc1Cl)C1C(=O)Nc2ccccc2[S+]1[O-] (stereo unspecified) ? no (0)

Would you mind telling me which call this test gave CCOC(=O)c1c(C(F)(F)F)oc2c1ccc1nc3nonc3nc12 ? no (0)

Would you mind telling me which call this test gave Cc1cc(C)nc(NC(=S)Nc2ccccc2Cl)c1 ? no (0)

Would you mind telling me which call this test gave CCN1CCC(O)(c2ccc(OC)cc2)C(C(=O)c2ccc(OC)cc2)C1 (stereo unspecified) ? no (0)

Would you mind telling me which call this test gave COc1cc2c(cc1OC)[C@@H](Nc1ccc(C#N)cc1)C1COC(=O)[C@@H]1C2c1cc(OC)c(O)c(OC)c1 (stereo partly specified) ? yes (1)

---

Tested on: LOX IMVI
Test: NCI tumour cell line growth inhibition, 48 h
Activity calls are given as the source filed them. No stated cut-off is given here; in the data, active = GI50 up to about 1.1 µM and inactive = higher.
Reply using exactly one outcome from active, inactive

Worked cases, answers included:
Would you mind telling me which call this test gave C=C1C(=O)O[C@@H]2C[C@@H]3[C@]4(CC[C@]5(C)[C@@H]([C@H](C)CC/C=C(\C)C=O)CC[C@@]35C)C[C@]4(CCC(=O)OC)[C@H]12 ? inactive

Would you mind telling me which call this test gave C=C(C)C1CC[C@]2(C(=O)O)CCC3(C)[C@H](CCC4[C@@]5(C)CC[C@H](OC6OC(CO)C(O)C6OC6OC(C)C(O)C(O)C6O)[C@@](C)(CO)C5CC[C@]43C)C12 (stereo partly drawn) ? inactive

Would you mind telling me which call this test gave O=C(O)CN1CCNCCN(CC(=O)O)CCNCC1 ? inactive

Would you mind telling me which call this test gave O=C1C=C(Cl)C(=O)C(c2ccc(Cl)cc2)=C1 ? inactive

Would you mind telling me which call this test gave CC1(C)C[C@H]2C=C(C=O)[C@]34C[C@]3(C(=O)OC4O)[C@H]2C1 (stereo partly drawn) ? inactive

Further cases:
Would you mind telling me which call this test gave CN(C)c1ccc(C(=N/N=C2\C(=O)Nc3ccccc32)c2ccc(N(C)C)cc2)cc1 ? active

Would you mind telling me which call this test gave C/C=C/C=N/N(c1nnc(-c2ccccc2)c(-c2ccccc2)n1)S(=O)(=O)c1ccc(C)cc1 ? inactive

Would you mind telling me which call this test gave CCC(C)OC(=O)/C(Br)=C1/OC(=O)c2ccccc2-c2ccccc21 (stereo not drawn) ? inactive

---

Test system: SK-MEL-28
Assay: NCI tumour cell line growth inhibition, 48 h
Activity calls are given as the source filed them. Cut-off read from the data, not from the text of the source: active = GI50 up to about 1.1 µM and inactive = higher.
Below, each entry is listed with its recorded GI50.

Request the reported GI50 associated with O=C(O)CSc1nnc(-c2ccccc2)[nH]1 > 100 µM (inactive)

Request the reported GI50 associated with COc1cc(Nc2cnc3cc(F)c(F)cc3n2)cc(OC)c1 > 100 µM (inactive)

Request the reported GI50 associated with Cc1cc(NS(=O)(=O)c2ccc(NC(=O)c3ccc(Cl)c4c(Nc5ccc(S(=O)(=O)Nc6cc(C)on6)cc5)c5ccccc5nc34)cc2)no1 > 10 µM (inactive)

Request the reported GI50 associated with CC1(C)C[C@H]2C=C(C=O)[C@]34C[C@]3(C(=O)OC4O)[C@H]2C1 (stereo not given in full) 2.92 µM (inactive)

Request the reported GI50 associated with CCOC(=O)c1c(C)n(Cc2ccc(Cl)cc2Cl)c2c1cc(O)c1[nH]c3c(c12)CCCC3 22.1 µM (inactive)

Request the reported GI50 associated with CC#Cc1c(C#CC)c(OC)c2c(c1OC)C(=O)c1ccccc1C2=O > 100 µM (inactive)

---

System: A549
Experiment: NCI tumour cell line growth inhibition, 48 h
The source made the active and inactive calls. Cut-off read from the data, not from the text of the source: active = GI50 up to about 1.1 µM and inactive = higher. Where a SMILES comes first, the peptide text is derived from it. The star is where a group is joined. Cbz = O=C(OCc1ccccc1)*; Bn = c1ccc(C*)cc1
Reply using exactly one outcome from Yes = active, No = inactive

Worked cases, answers included:
Would you mind telling me which call this test gave O=CC1C(Cl)=Nc2nc3ccccc3n2C1c1ccc([N+](=O)[O-])cc1 (stereo not given) ? No

Would you mind telling me which call this test gave CCCCCC/C=C\CCCCCCCCCC1=CC(=O)C=C(OC)C1=O [IRISQUINONE A] ? No

Would you mind telling me which call this test gave CCOc1ccc(/N=N/c2ccc3oc(=O)c(C(=O)Nc4ccc(OC)cc4)cc3c2)cc1 ? No

Would you mind telling me which call this test gave COc1ccc(/C=C/C(=O)c2c(-c3ccccc3)nn(C)c(=O)c2N2CCCCC2)cc1 ? No

Would you mind telling me which call this test gave OCc1ccccc1C1CSCSC1 ? No

Further cases:
Would you mind telling me which call this test gave COc1ccc(C(C)c2cc3c(cc2OC)OCO3)cc1 (stereo not given) ? Yes

Would you mind telling me which call this test gave COC(=O)C(Cc1ccc(O)cc1)NC(=O)C(COCc1ccccc1)NC(=O)OCc1ccccc1 (stereo not given) (Cbz-Ser(Bn)-Tyr-OMe; configuration not given here) ? No

Would you mind telling me which call this test gave Cc1[nH]c(/C=C2\C(=O)Nc3ccccc32)c(C)c1CCC(=O)O [ORANTINIB] ? No

Would you mind telling me which call this test gave CCCC(=O)OC[n+]1ccc2c(C)c3[nH]c4ccccc4c3c(C)c2c1 ? Yes

Would you mind telling me which call this test gave COc1cc(C2C(Cl)C(=O)N2NC(=O)Cc2ccccc2)cc(Br)c1O (stereo not given) ? No

---

Tested on: SNB-19
Experiment: NCI tumour cell line growth inhibition, 48 h
Active and inactive are the calls of the source. No stated cut-off is given here; in the data, active = GI50 up to about 1.1 µM and inactive = higher.
Below, each entry is listed with its recorded GI50.

Guide cases for GI50, answers given:
Request the reported GI50 associated with Oc1cc(O)c2c(c1)OC(c1ccc(O)c(O)c1)C(O)C2c1c(O)cc(O)c2c1OC(c1ccc(O)c(O)c1)C(O)C2 (stereo unspecified) > 100 µM (inactive)

Request the reported GI50 associated with Brc1cccc[n+]1-c1ccc2cc(-[n+]3ccccc3Br)ccc2c1 72.8 µM (inactive)

Request the reported GI50 associated with c1ccc2c3c(ccc2c1)CSCc1ccc2ccccc2c1-3 > 100 µM (inactive)

Request the reported GI50 associated with O=C(CCC=C(S(=O)(=O)c1ccccc1)S(=O)(=O)c1ccccc1)c1ccccc1 13.6 µM (inactive)

Request the reported GI50 associated with CC(C)c1ccc(/C=C(\NC(=O)c2ccccc2)c2nc3ccccc3[nH]2)cc1 47.8 µM (inactive)

Further cases:
Request the reported GI50 associated with CN(C)c1nc(N)nc(CS)n1 > 100 µM (inactive)

Request the reported GI50 associated with O=S(=O)(O)c1ccc(-c2c3nc(c(-c4ccc(S(=O)(=O)O)cc4)c4ccc([nH]4)c(-c4ccc(S(=O)(=O)O)cc4)c4nc(c(-c5ccc(S(=O)(=O)O)cc5)c5ccc2[nH]5)C=C4)C=C3)cc1 > 100 µM (inactive)

Request the reported GI50 associated with CCOC(=O)C(=O)Nc1ccccc1CC > 100 µM (inactive)

Request the reported GI50 associated with CC1(C)CC(=O)c2c(nc3ccc4ccccc4c3c2-c2ccc(NC(=O)CCCCC(=O)Nc3ccc(-c4c5c(nc6ccc7ccccc7c46)CC(C)(C)CC5=O)cc3)cc2)C1 > 100 µM (inactive)

Request the reported GI50 associated with COC(=O)NC1C(C)OC(OC2C/C=C(/C)C3C=CC4C(OC5CC(OC6CCC(OC7CC(O)C(OC8CCC(O)C(C)O8)C(C)O7)C(C)O6)C(OC(C)=O)C(C)O5)C(C)CC(C)C4C3(C)/C(O)=C3/C(=O)OC4(CC(C=O)=CC(O)C4/C=C\2C)C3=O)CC1(C)[N+](=O)[O-] (stereo unspecified) 0.69 µM (active)
